Data provenance: patent US4839374A

# Test system: compound 48/80-induced lethality
# Method Summary: Protection of rats from compound 48/80-induced lethality
# Assay type: in vivo, rats of an inbred Wistar strain
# Assay Conditions: Rattus norvegicus, 4 h, read-out: Compound 48/80 lethality test in rats ED50, s.c. or p.o. 1 h before compound 48/80 0.5 mg/kg i.v.; protection of 50% of animals, survival after 4 hours
Endpoint Name: ED50 (mg/kg)
The reply should be a number in mg/kg, with the unit left off.

> print(dat)
                              smiles.record                       target.desc  assay.value
1  O=c1[nH]c2ccccc2n1CCCN1CCC(Cc2nc3cccnc3n2Cc2ccco2)CC1  compound 48/80-induced lethality         0.04
2  Cc1nc2scc(C)n2c(=O)c1CCN1CCC(Cc2nc3ccccc3n2Cc2ccc(F)cc2)CC1  compound 48/80-induced lethality         0.08
3  Cc1nc2n(c(=O)c1CCN1CCC(Cc3nc4ccccc4n3Cc3ccco3)CC1)CCCC2  compound 48/80-induced lethality         0.08

QUERY: Entry `CNc1ccccc1C(=O)NCCN1CCC(Cc2nc3cccnc3n2Cc2ccc(F)cc2)CC1` has what ED50?
RESULT: 0.04

QUERY: Entry under review: `COc1ccc(CCN2CCC(Cc3nc4ccccc4n3Cc3cccs3)CC2)cc1` . Reported ED50?
RESULT: 0.08

QUERY: What does the data say about its ED50? Entry: `Fc1ccc(Cn2c(CC3CCN(CCNc4ccccn4)CC3)nc3ccccc32)cc1`
RESULT: 0.04

QUERY: Need ED50 of `Cn1cnc([N+](=O)[O-])c1NCCN1CCC(Cc2nc3ccccc3n2Cc2ccc(F)cc2)CC1` , thanks.
RESULT: 0.16

QUERY: Recorded ED50 for `CCCC(=O)c1ccc(OC)c(C(=O)NCCN2CCC(Cc3nc4ccccc4n3Cc3ccc(F)cc3)CC2)c1` , please?
RESULT: 0.08
